The origin of these recorded values is patent US8232407B2.

Overview of recorded Aphis craccivoral Mortality (%) 500 ppm for various compounds
Tested on: Aphis craccivoral
procedure-summary: Insecticidal activities to aphids, immersion method
Format: in vivo
cond: in vivo

Recorded results for 3 compounds are shown here.
compound	reported
O=[N+]([O-])C(=Cc1cc(Br)c(Br)o1)C1=NCCN1Cc1cnc(Cl)s1	100%
O=[N+]([O-])C(=Cc1oc(Cl)cc1Cl)C1=NCCN1CC1CCOC1 (stereo not shown)	87%
CCN(Cc1ccc(Cl)nc1)C(=NC)C(=Cc1ccc([N+](=O)[O-])o1)[N+](=O)[O-]	100%

Now for the compound whose Aphis craccivoral Mortality (%) 500 ppm we want.
Under Aphis craccivoral: Aphis craccivoral Mortality (%) 500 ppm value of CN=C(C(=Cc1ccoc1)[N+](=O)[O-])N(C)Cc1ccc(Cl)nc1 [Compound 162] ?
100%
